Source of measurements: ChEMBL document CHEMBL5512656

biological target: UniProt:P81908; test: Inhibition of equine serum BChE using butyrylthiocholine chloride as substrate preincubated for 10 mins followed by substrate addition and measured after 15 mins by Ellman's method
Sequence (P81908 whole entry): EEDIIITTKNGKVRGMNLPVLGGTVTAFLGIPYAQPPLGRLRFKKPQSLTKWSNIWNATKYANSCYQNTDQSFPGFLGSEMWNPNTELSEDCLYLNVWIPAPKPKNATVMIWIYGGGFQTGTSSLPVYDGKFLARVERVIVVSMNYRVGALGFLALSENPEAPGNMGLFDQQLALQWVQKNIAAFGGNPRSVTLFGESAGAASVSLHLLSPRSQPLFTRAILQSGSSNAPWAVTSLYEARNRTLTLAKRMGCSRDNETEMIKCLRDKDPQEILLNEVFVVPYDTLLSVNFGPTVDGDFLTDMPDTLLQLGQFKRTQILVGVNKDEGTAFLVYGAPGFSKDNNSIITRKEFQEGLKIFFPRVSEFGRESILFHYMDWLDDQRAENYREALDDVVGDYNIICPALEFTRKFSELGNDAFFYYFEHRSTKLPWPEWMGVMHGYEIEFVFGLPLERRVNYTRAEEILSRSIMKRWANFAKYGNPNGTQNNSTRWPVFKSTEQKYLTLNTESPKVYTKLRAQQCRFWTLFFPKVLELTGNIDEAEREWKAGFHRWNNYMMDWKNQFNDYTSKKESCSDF
Recorded pIC50, one value per entry.
For clarity, pIC50 is expressed as the negative log10 of concentration in mol/L.

Solved cases below.
molecule="CN(C)C(=O)Oc1cccc([N+](C)(C)C)c1 [NEOSTIGMINE]" value_observed=5.08
molecule="CC1(c2ccc(F)cc2)CC(c2ccc(F)cc2)=C(C#N)/C(=C(/C#N)c2nnn[nH]2)N1 (stereo not drawn)" value_observed=4.41

Here's the next entry for you.
Name the reported pIC50 value associated with the molecule COc1ccccc1C1=C(C#N)/C(=C(/C#N)c2nnn[nH]2)NC(C)(c2ccccc2OC)C1 (stereo not drawn) 6.54
